Just for reference, PubChem BioAssay (NCI) is where these values come from.

// growth lookup, one value per entry
Test system: HCT-15 colon
Test Protocol: NCI-60 one-dose screen, 48 h (100 = growth as untreated, 0 = no growth, -100 = all killed)
Measurement Conditions: 10 µM unless noted
Compounds without any hit were thinned out: in the full panel of roughly 83,000, 20% have a hit. Active and inactive are the calls of the source. The calls were made as follows: active = growth percent below 10; inactive = the rest.

Compound | Result
Cn1cc(-c2csc(-c3cn(CCN)c4ccccc34)n2)c2cccnc21 | 46.6% (inactive)
c1ccc(C2Cc3ccccc3C2=NC2CCCCC2)cc1 (configuration not stated) | 94.9% (inactive)
COc1cc2c(cc1-c1c(C)noc1C)ncc1nc(C3CCC(F)(F)CC3)n([C@@H](C)COC(F)F)c12 | 13.4% (inactive)
C[C@H]1[C@@H]2[C@H]3CC[C@@H]4[C@@]5(C)Cc6c([nH]c7ccccc67)C(C)(C)[C@@H]5CC[C@@]4(C)[C@]3(C)CC[C@]23CO[C@]1(C)[C@@H](C(=O)/C=C/c1ccccn1)C3 | 85.9% (inactive)
c1ccc2c(-c3nc(-c4c[nH]c5ncccc45)cs3)c[nH]c2c1 | 84.9% (inactive)
CC1(C)C=CC[C@]2(C)[C@H]3CC[C@@H]4[C@H]5[C@H](C(=O)/C=C/c6cccnc6)CC[C@]5(CO)CC[C@@]4(C)[C@]3(C)CC[C@@H]12 | -61.7% (active)

Proceed to the following item.
[ask] Tell me the measured growth of `CC(C)=CCC[C@](C)(O)[C@H]1CC[C@]2(C)[C@@H]1CC[C@@H]1[C@@]3(C)C/C(=C/c4cccc([N+](=O)[O-])c4)C(=O)C(C)(C)[C@@H]3CC[C@]12C` , please.
[reply] 83.5% (inactive)

====

Tested on: MOLT-4 leukemia
Test Protocol: NCI-60 one-dose screen, 48 h
Measurement Conditions: 10 µM unless noted
The panel holds about 83,000 compounds, 20% with a hit somewhere; the sample as a whole holds those more often. The source made the active and inactive calls. Rule for the calls: active = growth percent below 10; inactive = the rest.
Write down one outcome, taken from active, inactive

Solved entries:
Molecular String | Target Or Test System | Assigned Label
CC1(C)NCCC[C@]2(C)[C@H]3CC[C@@H]4[C@H]5[C@H](C(=O)/C=C/c6ccccn6)CC[C@]5(CO)CC[C@@]4(C)[C@]3(C)CC[C@@H]12 | MOLT-4 leukemia | active
CN1CCN(c2nc(-c3csc(-c4cccs4)n3)cc3ccccc23)CC1 | MOLT-4 leukemia | active
C=C(C)[C@@H]1CC[C@]2(CN)CC[C@]3(C)[C@H](CC[C@@H]4[C@@]5(C)CCC(=O)NC(C)(C)[C@@H]5CC[C@]43C)[C@@H]12 | MOLT-4 leukemia | inactive

# input for lookup
[ask] Please state the recorded outcome for this molecule: `Cn1cc(-c2nc(-c3c[nH]c4ncccc34)cs2)c2cc(Cl)ccc21`
[reply] inactive

====

Test system: PC-3 prostate
Test Protocol: NCI-60 one-dose screen, 48 h (100 = growth as untreated, 0 = no growth, -100 = all killed)
Measurement Conditions: 10 µM unless noted
The panel holds about 83,000 compounds, 20% with a hit somewhere; the sample as a whole holds those more often. Active and inactive are the calls of the source. How the source made its calls: active means growth percent below 10; inactive means the rest.
// growth lookup, one value per entry

Molecule | growth
Oc1ccc(CCC2CCCC(CCc3ccc(OCCF)cc3)N2)cc1 (stereo not drawn) | 87.8% (inactive)
Cc1ccc(Sc2sc(-c3ccccc3)nc2[P+](c2ccccc2)(c2ccccc2)c2ccccc2)cc1 | -30.6% (active)
O=C1CCCC=CC[C@H]2C=C(Cl)C(=O)C2=CC[C@H](CCCCC(F)(F)F)OC(=O)CCCC=CC[C@H]2C=C(Cl)C(=O)C2=CC[C@H](CCCCC(F)(F)F)OC(=O)CCCC=CC[C@H]2C=C(Cl)C(=O)C2=CC[C@H](CCCCC(F)(F)F)O1 | 71.9% [6.25 µM] (inactive)
c1ccc(C2Cc3ccccc3C2=NC2CCCCC2)cc1 (stereo not drawn) | 84.4% (inactive)
COc1cc(-c2nc(-c3ccccc3)c(-c3ccccc3)[nH]2)cc(OC)c1O | -58.6% (active)

[ask] Tell me the measured growth of `Brc1ccc2c(c1)c(-c1nc(-c3c[nH]c4ncccc34)cs1)cn2CCCN1CCCCC1` , please.
[reply] 2.12% (active)

[ask] Tell me the measured growth of `C=C(C)[C@@H]1CC[C@]2(C(=O)N3CCN(C)CC3)CC[C@]3(C)[C@H](CC[C@@H]4[C@@]5(C)C/C(=C/c6ccc(C(F)(F)F)cc6)C(=O)C(C)(C)[C@@H]5CC[C@]43C)[C@@H]12` , please.
[reply] 78.8% (inactive)

[ask] Tell me the measured growth of `COC(c1ccccc1)(c1ccccc1)c1ccccc1` , please.
[reply] 102% (inactive)

[ask] Tell me the measured growth of `Cc1nn(-c2ccc(Cl)cc2)c(=O)n1CCn1cnc2ccccc21` , please.
[reply] 104% (inactive)

[ask] Tell me the measured growth of `Cn1c(=O)c2c(nc(N3CCCC3)n2C)n(C)c1=O` , please.
[reply] 91.2% (inactive)

[ask] Tell me the measured growth of `COC(=O)[C@]12CC[C@@H](C)[C@H](C)[C@@H]1C1=CC(=O)[C@@H]3[C@@]4(C)C[C@@H](O)[C@H](O)[C@@]5(C)COC(=C45)C[C@@]3(C)[C@]1(C)CC2` , please.
[reply] 49.2% (inactive)

[ask] Tell me the measured growth of `Cc1cc(N=O)cc(C(C)(C)C)c1O` , please.
[reply] 74.5% (inactive)

[ask] Tell me the measured growth of `Cc1cccc(C)c1NC(=O)CSC(=S)N1CCCCC1` , please.
[reply] 97.6% (inactive)

[ask] Tell me the measured growth of `COc1ccc2c(c1)c(-c1nc(-c3c[nH]c4ncccc34)cs1)cn2C` , please.
[reply] 61.1% (inactive)

[ask] Tell me the measured growth of `COc1ccc(-c2c(-c3nc4ccc(N5CCOCC5)cc4[nH]3)[nH]c(C)c2C(C)=O)cc1` , please.
[reply] 48.7% (inactive)

[ask] Tell me the measured growth of `Cc1cccc2c1NC(=O)[C@@]21[C@H](C(=O)c2ccccc2)[C@]2(C(=O)Nc3ccccc32)[C@H]2CCCN21` , please.
[reply] 21.7% [100 µM] (inactive)

[ask] Tell me the measured growth of `O=C1CCC/C=C\C[C@H]2C=C(Cl)C(=O)/C2=C/C[C@H](CCCCC(F)(F)F)OC(=O)CCC/C=C\C[C@H]2C=C(Cl)C(=O)/C2=C/C[C@H](CCCCC(F)(F)F)O1` , please.
[reply] -44.8% [7.5 µM] (active)

[ask] Tell me the measured growth of `CCC(=O)c1c(C)[nH]c(C)c1C` , please.
[reply] 79.9% (inactive)

[ask] Tell me the measured growth of `Cn1c(=O)c2c(ncn2CC(=O)Nc2ccc(S(N)(=O)=O)cc2)n(C)c1=O` , please.
[reply] 83.4% (inactive)

[ask] Tell me the measured growth of `COc1ccc(-c2cc(-c3c(C)oc4cc5occc5c(OC)c4c3=O)nc(N)c2C#N)cc1OC` , please.
[reply] 62.6% (inactive)

[ask] Tell me the measured growth of `O=C(N/N=C\c1c(O)ccc2ccccc12)C1CC1` , please.
[reply] 45.8% (inactive)

[ask] Tell me the measured growth of `Cc1csc(Nc2nc(-c3ccc(Cl)cc3)nc(C(Cl)(Cl)Cl)n2)n1` , please.
[reply] 74.1% (inactive)

[ask] Tell me the measured growth of `CCOc1ccc(NC(=O)c2ccccc2-c2ccccc2C(=O)O)cc1` , please.
[reply] 101% (inactive)
